test system: SW480 colon carcinoma cells; assay: Cell viability assay (CellTiter-Glo) in SW480 cells; format: cell-based, human; details: four days
pEC50: −log10 of the molar value.
experimental-endpoint: pEC50

I would be grateful if you could share the reported pEC50 for CC(C)(F)CN1CCC(n2cc(-c3ccc4[nH]nc(C(=O)Nc5ccc(OC(F)F)cc5)c4c3)cn2)CC1 .
< 5.00
